log10 of IC50 values for the molecules below.
System: human acute monocytic leukemia cell strain THP-1
test: LPS-stimulated TNFα production inhibition test using THP-1 cells
Type: cell-based
conditions: Homo sapiens, THP-1, 4 h, LPS 2.5 ng/mL, TNFα by HTRF
measure.name: log10 of IC50 (log10 of the value in µM)

INSERT INTO measurements (molecule, target_or_system, measure_name, value_measured) VALUES
  ('Cc1ncc(-c2ccc3ncc4cc3c2OCCCOC(=O)C2CC(CC(C)N2C)N4)cn1 (stereo not shown)', 'human acute monocytic leukemia cell strain THP-1', 'log10 of IC50', -1.48),
  ('Cc1ncc(-c2ccc3ncc4cc3c2OCC(F)CNC(=O)C2(C)CC(CCN2C)N4)cn1 (stereo not shown)', 'human acute monocytic leukemia cell strain THP-1', 'log10 of IC50', -0.15),
  ('CCC(O)COCc1ncc(-c2ccc3ncc4nc3c2OCCCNC(=O)[C@@H]2C[C@H](CCN2C)N4)cn1 (stereo partly shown)', 'human acute monocytic leukemia cell strain THP-1', 'log10 of IC50', -1.00),
  ('CCCOCc1ncc(-c2ccc3ncc4cc3c2OCC(F)COC(=O)[C@@H]2C[C@H](CCN2C)N4)cn1 (stereo partly shown)', 'human acute monocytic leukemia cell strain THP-1', 'log10 of IC50', -1.24),
  ('CN1CC[C@H]2C[C@H]1C(=O)NCC1(CCC1)COc1c(-c3cncnc3)ccc3ncc(nc13)N2', 'human acute monocytic leukemia cell strain THP-1', 'log10 of IC50', -0.82),
  ('CN1CC[C@H]2C[C@H]1C(=O)OCCCOc1c(-c3cnc(CO)nc3)ccc3ncc(cc13)N2', 'human acute monocytic leukemia cell strain THP-1', 'log10 of IC50', -1.19),
  ('Cc1ncc(-c2ccc3ncc4cc3c2OCC(F)CNC(=O)[C@@H]2C[C@H](CCN2C)N4)cn1 (stereo partly shown)', 'human acute monocytic leukemia cell strain THP-1', 'log10 of IC50', -1.19),
  ('CCCOCc1ncc(-c2ccc3ncc4nc3c2OCCC(C)NC(=O)[C@@H]2C[C@H](CCN2C)N4)cn1 (stereo partly shown)', 'human acute monocytic leukemia cell strain THP-1', 'log10 of IC50', -0.63),
  ('CN1CC[C@H]2C[C@H]1C(=O)NCCCCCOc1c(-c3cncnc3)ccc3ncc(nc13)N2', 'human acute monocytic leukemia cell strain THP-1', 'log10 of IC50', -0.69),
  ('CCCOCc1ncc(-c2ccc3ncc4nc3c2OCCCN(C)C(=O)[C@@H]2C[C@H](CCN2C)N4)cn1', 'human acute monocytic leukemia cell strain THP-1', 'log10 of IC50', -0.70),
  ('Cc1ncc(-c2ccc3ncc4nc3c2OCCCNC(=O)[C@@H]2C[C@H](CCN2C)N4)cn1', 'human acute monocytic leukemia cell strain THP-1', 'log10 of IC50', -0.85),
  ('Cc1ncc(-c2ccc3ncc4nc3c2OCC2(CC2)CNC(=O)[C@@H]2C[C@H](CCN2C)N4)cn1', 'human acute monocytic leukemia cell strain THP-1', 'log10 of IC50', -0.85),
  ('CCCOCc1ncc(-c2ccc3ncc4cc3c2CCCCNC(=O)[C@@H]2C[C@H](CCN2C)N4)cn1', 'human acute monocytic leukemia cell strain THP-1', 'log10 of IC50', -0.42),
  ('CCCOCc1ncc(-c2ccc3ncc4nc3c2OCCCNC(=O)[C@@H]2C[C@H](CCN2C)N4)cn1', 'human acute monocytic leukemia cell strain THP-1', 'log10 of IC50', -1.24),
  ('Cc1ncc(-c2ccc3ncc4cc3c2OCC(F)CNC(=O)[C@@H]2C[C@H](CC(C)N2C)N4)cn1 (stereo partly shown)', 'human acute monocytic leukemia cell strain THP-1', 'log10 of IC50', -1.44),
  ('CCCOCc1ncc(-c2ccc3ncc4cc3c2OCC(F)CNC(=O)[C@@H]2C[C@H](CCN2C)N4)cn1 (stereo partly shown)', 'human acute monocytic leukemia cell strain THP-1', 'log10 of IC50', -1.89);
